biological target: Angiotensin-converting enzyme (Homo sapiens, UniProt P12821); assay: Inhibitory concentration was evaluated by inhibiting 50% of Angiotensin I Converting Enzyme activity using 50 micro M N-Cbz-Phe-His-Leu as substrate
Sequence (P12821 whole entry): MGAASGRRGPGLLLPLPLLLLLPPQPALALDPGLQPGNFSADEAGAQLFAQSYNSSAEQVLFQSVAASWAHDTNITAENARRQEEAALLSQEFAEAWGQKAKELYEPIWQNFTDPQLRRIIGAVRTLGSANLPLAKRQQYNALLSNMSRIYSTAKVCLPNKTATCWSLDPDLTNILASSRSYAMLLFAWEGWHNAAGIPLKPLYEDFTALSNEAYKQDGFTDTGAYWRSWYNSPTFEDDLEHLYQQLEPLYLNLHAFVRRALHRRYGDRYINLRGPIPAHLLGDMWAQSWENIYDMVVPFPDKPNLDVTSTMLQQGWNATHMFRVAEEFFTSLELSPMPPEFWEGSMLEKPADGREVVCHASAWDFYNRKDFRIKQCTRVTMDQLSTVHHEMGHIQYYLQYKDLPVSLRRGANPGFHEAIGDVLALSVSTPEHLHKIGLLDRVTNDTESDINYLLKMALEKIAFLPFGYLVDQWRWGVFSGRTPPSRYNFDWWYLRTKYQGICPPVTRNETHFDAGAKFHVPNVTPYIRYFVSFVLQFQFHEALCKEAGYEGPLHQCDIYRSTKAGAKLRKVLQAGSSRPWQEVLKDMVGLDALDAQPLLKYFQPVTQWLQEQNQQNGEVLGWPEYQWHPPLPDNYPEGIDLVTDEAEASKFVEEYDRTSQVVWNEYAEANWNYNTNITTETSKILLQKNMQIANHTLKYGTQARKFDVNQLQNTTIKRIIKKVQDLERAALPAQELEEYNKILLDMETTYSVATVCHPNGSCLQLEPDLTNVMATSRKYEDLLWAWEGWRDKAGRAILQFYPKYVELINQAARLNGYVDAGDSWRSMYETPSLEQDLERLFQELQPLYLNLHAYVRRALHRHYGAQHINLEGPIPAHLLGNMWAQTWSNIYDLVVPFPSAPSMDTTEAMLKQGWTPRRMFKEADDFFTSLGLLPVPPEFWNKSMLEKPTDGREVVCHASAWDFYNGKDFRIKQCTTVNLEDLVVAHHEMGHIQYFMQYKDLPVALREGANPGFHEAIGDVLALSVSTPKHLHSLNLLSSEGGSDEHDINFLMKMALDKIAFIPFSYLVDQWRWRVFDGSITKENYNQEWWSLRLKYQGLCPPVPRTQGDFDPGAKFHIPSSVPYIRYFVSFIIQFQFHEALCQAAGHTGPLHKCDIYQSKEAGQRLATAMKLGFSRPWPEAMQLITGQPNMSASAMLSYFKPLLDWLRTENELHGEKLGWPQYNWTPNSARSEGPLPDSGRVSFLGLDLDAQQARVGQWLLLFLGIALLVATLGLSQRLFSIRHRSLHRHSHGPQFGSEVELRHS
Quantity name: IC50 (µM)

Query smiles	Quantity name	Observed result
CC(C)C[C@H](S)[C@@H](Cc1ccccc1)C(=O)N[C@@H](C)C(=O)O	IC50	16.1

----------
target: Angiotensin-converting enzyme (Homo sapiens, UniProt P12821); assay: Inhibitory concentration was evaluated by Inhibiting 50% of Angiotensin I converting enzyme activity using 50 uM N-Cbz-Phe-His-Leu as substrate
Quantity name: log10(IC50) (log10 of the value in µM)

Molecule	Observed result
CC(C)C(NC(=O)C(Cc1ccccc1)C(C)S)C(=O)NC(Cc1ccc(O)cc1)C(=O)O (stereo not given)	0.11
CCCCC(NC(=O)C(Cc1ccccc1)C(C)S)C(=O)NC(Cc1ccc(O)cc1)C(=O)O (stereo not given)	0.79
CCC(C)C(NC(=O)C(Cc1ccccc1)C(C)S)C(=O)NC(Cc1ccc(O)cc1)C(=O)O (stereo not given)	-0.52
CC(C)CC(S)CC(=O)NC(Cc1ccccc1)C(=O)NC(Cc1ccc(O)cc1)C(=O)O (stereo not given)	0.45
CC(S)C(Cc1ccccc1)C(=O)NCC(=O)O (stereo not given)	1.04

The origin of these recorded values is ChEMBL document CHEMBL1126948.
